# measurement.target: human FXR (NR1H4) (Homo sapiens (Human))
# test.summary: Human FXR (NR1H4) Assay (Gal4 promoter driven luciferase reporter, Indigo Bioscience kit)
# details: Human FXR (NR1H4) Assay, potency ranges

molecule	measurement.target	EC50
CC[C@H]1[C@@H](O)[C@@H]2[C@H](CC[C@]3(C)[C@@H]([C@H](C)CCOC(=O)NS(=O)(=O)c4ccc(OC(F)(F)F)c(F)c4)CC[C@@H]23)[C@@]2(C)CC[C@@H](O)C[C@@H]12 [Example 104-k]	human FXR (NR1H4) (Homo sapiens (Human))	100 to 1000 nM
CC[C@H]1[C@@H](O)[C@@H]2[C@H](CC[C@]3(C)[C@@H]([C@H](C)CCOC(=O)N[C@H]4CCC[C@H]4O)CC[C@@H]23)[C@@]2(C)CC[C@@H](O)C[C@@H]12 [Example 216]	human FXR (NR1H4) (Homo sapiens (Human))	100 to 1000 nM
CC[C@H]1[C@@H](O)[C@@H]2[C@H](CC[C@]3(C)[C@@H]([C@H](C)CCOC(=O)NCc4ccc(C(=O)O)cc4)CC[C@@H]23)[C@@]2(C)CC[C@@H](O)C[C@@H]12 [Example 159]	human FXR (NR1H4) (Homo sapiens (Human))	100 to 1000 nM

====

# measurement.target: human FXR (NR1H4) (Homo sapiens (Human), UniProt Q96RI1)
# Sequence (Q96RI1 whole entry, the tested form may be a part): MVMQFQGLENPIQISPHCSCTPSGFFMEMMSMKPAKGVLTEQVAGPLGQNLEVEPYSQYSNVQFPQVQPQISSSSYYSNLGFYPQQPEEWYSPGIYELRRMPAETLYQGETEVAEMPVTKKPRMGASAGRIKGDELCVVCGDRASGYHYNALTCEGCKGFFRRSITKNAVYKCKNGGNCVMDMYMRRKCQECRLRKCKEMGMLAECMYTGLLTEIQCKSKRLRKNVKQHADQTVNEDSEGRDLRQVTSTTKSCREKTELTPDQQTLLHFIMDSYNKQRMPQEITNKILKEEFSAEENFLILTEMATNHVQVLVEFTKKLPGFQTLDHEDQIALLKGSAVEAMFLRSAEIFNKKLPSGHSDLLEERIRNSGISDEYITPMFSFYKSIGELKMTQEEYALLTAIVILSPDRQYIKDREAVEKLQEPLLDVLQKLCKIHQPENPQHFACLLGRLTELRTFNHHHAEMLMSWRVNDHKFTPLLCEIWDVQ
# test.summary: Human FXR (NR1H4) Assay (Gal4 promoter driven luciferase reporter, Indigo Bioscience kit);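 on Efficacy (%): 100% equals the efficacy of CDCA; efficacy normalized to CDCA set as 100%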
# Format: cell-based
# details: read-out: Efficacy (%)
Readings of Emax for the listed molecules

molecular.string	measurement.target	Emax, %
CC[C@H]1[C@@H](O)[C@@H]2[C@H](CC[C@]3(C)[C@@H]([C@H](C)COC(=O)NS(=O)(=O)c4ccc(-n5ccnn5)cc4)CC[C@@H]23)[C@@]2(C)CC[C@@H](O)C[C@@H]12	human FXR (NR1H4) (Homo sapiens (Human), UniProt Q96RI1)	209
CC[C@H]1[C@@H](O)[C@@H]2[C@H](CC[C@]3(C)[C@@H]([C@H](C)COC(=O)NS(=O)(=O)c4ccc(-c5ccc(OC(F)(F)F)cc5)s4)CC[C@@H]23)[C@@]2(C)CC[C@@H](O)C[C@@H]12	human FXR (NR1H4) (Homo sapiens (Human), UniProt Q96RI1)	206
CC[C@H]1[C@@H](O)[C@@H]2[C@H](CC[C@]3(C)[C@@H]([C@H](C)CCOC(=O)NS(=O)(=O)c4ccccc4F)CC[C@@H]23)[C@@]2(C)CC[C@@H](O)C[C@@H]12	human FXR (NR1H4) (Homo sapiens (Human), UniProt Q96RI1)	317
CC[C@H]1[C@@H](O)[C@@H]2[C@H](CC[C@]3(C)[C@@H]([C@H](C)COC(=O)NS(=O)(=O)c4ccc(-n5ccnc5)cc4)CC[C@@H]23)[C@@]2(C)CC[C@@H](O)C[C@@H]12	human FXR (NR1H4) (Homo sapiens (Human), UniProt Q96RI1)	194

====

# measurement.target: human FXR (NR1H4) (Homo sapiens (Human))
# test.summary: Human FXR (NR1H4) Assay (Gal4 promoter driven luciferase reporter, Indigo Bioscience kit)
# details: Human FXR (NR1H4) Assay, potency ranges
test.readout: EC50

molecular.string	measurement.target	test.readout	data.value
CC[C@H]1[C@@H](O)[C@@H]2[C@H](CC[C@]3(C)[C@@H]([C@H](C)CCOC(=O)NS(=O)(=O)c4ccc5c(c4)OCO5)CC[C@@H]23)[C@@]2(C)CC[C@@H](O)C[C@@H]12	human FXR (NR1H4) (Homo sapiens (Human))	EC50	< 100 nM
CC[C@H]1[C@@H](O)[C@@H]2[C@H](CC[C@]3(C)[C@@H]([C@H](C)CCOC(=O)NS(=O)(=O)N4CCOCC4)CC[C@@H]23)[C@@]2(C)CC[C@@H](O)C[C@@H]12	human FXR (NR1H4) (Homo sapiens (Human))	EC50	< 100 nM
CC[C@H]1[C@@H](O)[C@@H]2[C@H](CC[C@]3(C)[C@@H]([C@H](C)CCCOC(=O)N4CCC(N5CCCCC5)CC4)CC[C@@H]23)[C@@]2(C)CC[C@@H](O)C[C@@H]12	human FXR (NR1H4) (Homo sapiens (Human))	EC50	1000 to 10000 nM
CC[C@H]1[C@@H](O)[C@@H]2[C@H](CC[C@]3(C)[C@@H]([C@H](C)CCOC(=O)NS(=O)(=O)c4ccccc4OC)CC[C@@H]23)[C@@]2(C)CC[C@@H](O)C[C@@H]12	human FXR (NR1H4) (Homo sapiens (Human))	EC50	< 100 nM
